Reported activation at 1000 µM values are given for each entry in this list.
MEASURED_TARGET: human TRPA1 (Homo sapiens, UniProt O75762, K186N/R3C/R58T)
Construct: expressed in transfected cells; pcDNA3 control cells
Sequence (O75762 whole entry R3C/R58T/K186N): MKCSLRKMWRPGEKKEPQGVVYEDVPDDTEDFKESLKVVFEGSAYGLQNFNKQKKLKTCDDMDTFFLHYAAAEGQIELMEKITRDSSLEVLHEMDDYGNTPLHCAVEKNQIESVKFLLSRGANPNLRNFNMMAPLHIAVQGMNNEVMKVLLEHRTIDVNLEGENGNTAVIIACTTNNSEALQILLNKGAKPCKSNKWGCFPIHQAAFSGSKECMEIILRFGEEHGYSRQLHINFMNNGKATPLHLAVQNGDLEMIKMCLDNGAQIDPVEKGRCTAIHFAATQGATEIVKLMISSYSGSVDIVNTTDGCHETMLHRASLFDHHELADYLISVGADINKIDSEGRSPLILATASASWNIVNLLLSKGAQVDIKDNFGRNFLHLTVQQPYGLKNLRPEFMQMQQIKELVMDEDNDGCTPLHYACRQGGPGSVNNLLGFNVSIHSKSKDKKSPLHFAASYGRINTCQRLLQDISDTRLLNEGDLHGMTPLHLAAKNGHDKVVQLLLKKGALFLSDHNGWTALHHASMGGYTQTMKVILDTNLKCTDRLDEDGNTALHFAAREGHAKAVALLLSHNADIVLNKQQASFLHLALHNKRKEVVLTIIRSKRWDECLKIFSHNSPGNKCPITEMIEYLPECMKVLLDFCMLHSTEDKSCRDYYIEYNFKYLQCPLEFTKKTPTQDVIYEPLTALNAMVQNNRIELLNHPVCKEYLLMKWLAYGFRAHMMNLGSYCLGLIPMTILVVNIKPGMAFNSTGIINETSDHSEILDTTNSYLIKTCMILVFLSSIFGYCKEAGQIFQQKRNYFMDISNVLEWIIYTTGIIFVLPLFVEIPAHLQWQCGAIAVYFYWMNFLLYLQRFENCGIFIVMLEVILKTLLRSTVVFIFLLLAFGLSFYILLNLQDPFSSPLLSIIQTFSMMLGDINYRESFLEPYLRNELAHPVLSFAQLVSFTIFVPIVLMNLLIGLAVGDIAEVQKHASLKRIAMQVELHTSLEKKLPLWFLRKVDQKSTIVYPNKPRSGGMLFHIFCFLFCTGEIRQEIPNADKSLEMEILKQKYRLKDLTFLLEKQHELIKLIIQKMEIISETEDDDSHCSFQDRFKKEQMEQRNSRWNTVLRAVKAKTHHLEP
MEASUREMENT_DESCRIPTION: Intracellular calcium (Fluo-4, FLIPR) activation of TRPA1 cells by GRAS compounds
Type: cell-based
RUN_CONDITIONS: Table 1(b); 1 mM; relative to AITC 30 μM; read-out: A1 activation, % of agonist value

>  <COMPOUND>
CCCCCC1C(=O)CCC1CC(=O)OC (centres unmarked) [Hedione, Methyl dihydrojasmonate]

>  <MEASURED_TARGET>
human TRPA1 (Homo sapiens, UniProt O75762, K186N/R3C/R58T)

>  <activation at 1000 µM / %>
43.5

$$$$
>  <COMPOUND>
CCCCCC(O)CC(=O)OCC (centres unmarked) [Ethyl 3-hydroxyoctanoate]

>  <MEASURED_TARGET>
human TRPA1 (Homo sapiens, UniProt O75762, K186N/R3C/R58T)

>  <activation at 1000 µM / %>
97.3

$$$$
>  <COMPOUND>
CC(CC=O)CC(C)(C)C (centres unmarked)

>  <MEASURED_TARGET>
human TRPA1 (Homo sapiens, UniProt O75762, K186N/R3C/R58T)

>  <activation at 1000 µM / %>
133

$$$$
>  <COMPOUND>
COc1cc(/C=C/C(=O)CC(=O)/C=C/c2ccc(O)c(OC)c2)ccc1O

>  <MEASURED_TARGET>
human TRPA1 (Homo sapiens, UniProt O75762, K186N/R3C/R58T)

>  <activation at 1000 µM / %>
95.3

$$$$
>  <COMPOUND>
CC(C)C(=O)OCc1ccc2c(c1)OCO2 [Piperonyl isobutyrate]

>  <MEASURED_TARGET>
human TRPA1 (Homo sapiens, UniProt O75762, K186N/R3C/R58T)

>  <activation at 1000 µM / %>
61

$$$$
>  <COMPOUND>
OCCCc1ccccc1

>  <MEASURED_TARGET>
human TRPA1 (Homo sapiens, UniProt O75762, K186N/R3C/R58T)

>  <activation at 1000 µM / %>
51.4

$$$$
>  <COMPOUND>
CC1=CC(=O)C(C(C)C)CC1 (centres unmarked)

>  <MEASURED_TARGET>
human TRPA1 (Homo sapiens, UniProt O75762, K186N/R3C/R58T)

>  <activation at 1000 µM / %>
90.1

$$$$
>  <COMPOUND>
CC(C)=CCCC(C)CCO (centres unmarked)

>  <MEASURED_TARGET>
human TRPA1 (Homo sapiens, UniProt O75762, K186N/R3C/R58T)

>  <activation at 1000 µM / %>
102

$$$$
>  <COMPOUND>
CC(C)=CCC/C(C)=C/CO

>  <MEASURED_TARGET>
human TRPA1 (Homo sapiens, UniProt O75762, K186N/R3C/R58T)

>  <activation at 1000 µM / %>
82.5

$$$$
>  <COMPOUND>
COc1cc(CCC(C)=O)ccc1O

>  <MEASURED_TARGET>
human TRPA1 (Homo sapiens, UniProt O75762, K186N/R3C/R58T)

>  <activation at 1000 µM / %>
22.3

$$$$
>  <COMPOUND>
CCCC1CC(=O)C=C(C)C1 (centres unmarked)

>  <MEASURED_TARGET>
human TRPA1 (Homo sapiens, UniProt O75762, K186N/R3C/R58T)

>  <activation at 1000 µM / %>
69

$$$$
>  <COMPOUND>
CCCCCC/C=C/C=O [(E)-2-Nonenal]

>  <MEASURED_TARGET>
human TRPA1 (Homo sapiens, UniProt O75762, K186N/R3C/R58T)

>  <activation at 1000 µM / %>
130

$$$$
>  <COMPOUND>
Cc1ccc(C(C)C)c(O)c1

>  <MEASURED_TARGET>
human TRPA1 (Homo sapiens, UniProt O75762, K186N/R3C/R58T)

>  <activation at 1000 µM / %>
159

$$$$
>  <COMPOUND>
Cc1ccc(C(C)C)cc1O

>  <MEASURED_TARGET>
human TRPA1 (Homo sapiens, UniProt O75762, K186N/R3C/R58T)

>  <activation at 1000 µM / %>
115

$$$$
>  <COMPOUND>
CC(O)CCc1ccccc1 (centres unmarked)

>  <MEASURED_TARGET>
human TRPA1 (Homo sapiens, UniProt O75762, K186N/R3C/R58T)

>  <activation at 1000 µM / %>
58.8

$$$$
>  <COMPOUND>
COC(=O)C1CCCCC1 [Methyl cyclohexanecarboxylate]

>  <MEASURED_TARGET>
human TRPA1 (Homo sapiens, UniProt O75762, K186N/R3C/R58T)

>  <activation at 1000 µM / %>
45.5

$$$$
>  <COMPOUND>
CCCCCC(=O)CCCC(=O)O

>  <MEASURED_TARGET>
human TRPA1 (Homo sapiens, UniProt O75762, K186N/R3C/R58T)

>  <activation at 1000 µM / %>
28.6

$$$$
>  <COMPOUND>
CC(=O)C(C)S (centres unmarked)

>  <MEASURED_TARGET>
human TRPA1 (Homo sapiens, UniProt O75762, K186N/R3C/R58T)

>  <activation at 1000 µM / %>
50.4

$$$$
>  <COMPOUND>
OCCCCCc1ccccc1

>  <MEASURED_TARGET>
human TRPA1 (Homo sapiens, UniProt O75762, K186N/R3C/R58T)

>  <activation at 1000 µM / %>
119

$$$$
>  <COMPOUND>
O=C1CCCC1C1CCCC1 (centres unmarked)

>  <MEASURED_TARGET>
human TRPA1 (Homo sapiens, UniProt O75762, K186N/R3C/R58T)

>  <activation at 1000 µM / %>
25

$$$$

====

MEASURED_TARGET: human TRPA1 (Homo sapiens, UniProt O75762, K186N/R3C/R58T)
Construct: expressed in transfected cells; pcDNA3 control cells
MEASUREMENT_DESCRIPTION: Intracellular calcium (Fluo-4, FLIPR) activation of TRPA1 cells by GRAS compounds;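 note: TRPA1-expressing cells, fluorescence read on a FLIPR Tetra (ex 488 nm, em 514 nm) every 2 s for 10 min after compound addition, baseline subtracted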
Type: cell-based
RUN_CONDITIONS: Table 1(c); 1 mM; relative to AITC 30 μM; read-out: A1 activation, % of agonist value
Label criterion not met if activation at 1000 µM falls below 80%; label criterion met in every other case.

>  <COMPOUND>
COC(=O)c1ccccc1OC [Methyl 2-methoxybenzoate]

>  <CATEGORY>
criterion not met

$$$$
>  <COMPOUND>
CC=Cc1ccc(OC(C)=O)c(OC)c1 [Isoeugenyl acetate]

>  <CATEGORY>
criterion not met

$$$$
>  <COMPOUND>
Cc1ccc(CO)o1

>  <CATEGORY>
criterion not met

$$$$
>  <COMPOUND>
CCCCCC1C(=O)CCC1CC(=O)OC (stereo not shown) [Hedione, Methyl dihydrojasmonate]

>  <CATEGORY>
criterion not met

$$$$
>  <COMPOUND>
C=CCOC(=O)Cc1ccccc1 [Allyl phenylacetate]

>  <CATEGORY>
criterion met

$$$$
>  <COMPOUND>
O=C(OCCc1ccccc1)c1ccco1

>  <CATEGORY>
criterion met

$$$$
>  <COMPOUND>
CCCCCC(C=O)=Cc1ccccc1

>  <CATEGORY>
criterion met

$$$$
>  <COMPOUND>
CC(=O)OCC=Cc1ccccc1 [Cinnamyl acetate]

>  <CATEGORY>
criterion met

$$$$
>  <COMPOUND>
CC(C)CC(O)Cc1ccccc1 (stereo not shown)

>  <CATEGORY>
criterion not met

$$$$

====

MEASURED_TARGET: human TRPV1 (Homo sapiens, UniProt Q8NER1, M315I/T336M)
Construct: expressed in transfected cells; pcDNA3 control cells
Sequence (Q8NER1 whole entry M315I/T336M): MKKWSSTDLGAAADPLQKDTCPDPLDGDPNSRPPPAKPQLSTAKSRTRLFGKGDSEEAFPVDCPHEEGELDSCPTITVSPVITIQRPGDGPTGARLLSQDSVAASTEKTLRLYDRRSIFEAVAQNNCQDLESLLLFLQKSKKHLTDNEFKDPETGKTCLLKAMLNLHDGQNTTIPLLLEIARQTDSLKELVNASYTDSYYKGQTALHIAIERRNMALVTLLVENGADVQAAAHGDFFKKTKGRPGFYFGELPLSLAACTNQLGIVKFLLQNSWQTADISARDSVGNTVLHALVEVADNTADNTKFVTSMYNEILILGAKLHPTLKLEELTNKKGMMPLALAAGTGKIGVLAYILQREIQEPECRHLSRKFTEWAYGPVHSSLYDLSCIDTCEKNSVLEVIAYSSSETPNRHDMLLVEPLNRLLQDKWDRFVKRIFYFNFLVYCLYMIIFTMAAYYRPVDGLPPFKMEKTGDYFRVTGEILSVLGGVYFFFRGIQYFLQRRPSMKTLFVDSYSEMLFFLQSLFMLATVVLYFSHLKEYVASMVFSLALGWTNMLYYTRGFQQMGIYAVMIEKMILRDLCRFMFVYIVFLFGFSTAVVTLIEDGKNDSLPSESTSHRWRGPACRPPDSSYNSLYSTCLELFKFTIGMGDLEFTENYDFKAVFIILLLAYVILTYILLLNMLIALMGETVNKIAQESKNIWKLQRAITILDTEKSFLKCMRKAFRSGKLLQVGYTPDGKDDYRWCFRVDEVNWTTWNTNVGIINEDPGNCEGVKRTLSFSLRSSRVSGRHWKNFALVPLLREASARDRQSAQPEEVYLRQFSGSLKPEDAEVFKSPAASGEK
MEASUREMENT_DESCRIPTION: Intracellular calcium (Fluo-4, FLIPR) activation of TRPV1 cells by GRAS compounds;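 note: TRPV1-expressing cells, FLIPR fluorescence at 488/514 nm with baseline subtracted, sampled every 2 s for 10 min after adding compound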
Type: cell-based
RUN_CONDITIONS: Table 1(g); 1 mM; relative to capsaicin 350 nM; read-out: V1 activation, % of agonist value
Measured activation at 1000 µM, listed per entry.

>  <COMPOUND>
C=CCSCC=C

>  <activation at 1000 µM (%)>
47.3

$$$$
>  <COMPOUND>
CC(C=O)=Cc1ccccc1

>  <activation at 1000 µM (%)>
54.6

$$$$
>  <COMPOUND>
CSCc1ccco1 [Furfuryl methyl sulfide]

>  <activation at 1000 µM (%)>
50.1

$$$$
>  <COMPOUND>
Cc1ccc(C=O)s1

>  <activation at 1000 µM (%)>
58.9

$$$$
>  <COMPOUND>
CC1SCCS1

>  <activation at 1000 µM (%)>
66.2

$$$$
>  <COMPOUND>
CC(=O)c1ccc(C)cc1

>  <activation at 1000 µM (%)>
55

$$$$
>  <COMPOUND>
CCc1ccc(C=O)cc1

>  <activation at 1000 µM (%)>
56.3

$$$$
>  <COMPOUND>
CC(=O)CCc1ccc(OC(C)=O)cc1

>  <activation at 1000 µM (%)>
58.9

$$$$
>  <COMPOUND>
CCCCC(=O)C(CCC)Sc1ccoc1C (stereo not drawn)

>  <activation at 1000 µM (%)>
40.6

$$$$
>  <COMPOUND>
Cc1ccc(C=O)c(O)c1

>  <activation at 1000 µM (%)>
56.5

$$$$
>  <COMPOUND>
O=C(O)CCCCC(=O)O

>  <activation at 1000 µM (%)>
47.6

$$$$
>  <COMPOUND>
O=C(O)c1ccc(O)c(O)c1

>  <activation at 1000 µM (%)>
60.6

$$$$
